The measured values listed here are drawn from ChEMBL document CHEMBL5303304.

System: U2OS
Assay: Incucyte cell viability with U2OS; further: unitless GR value; below 1 slowed growth and below 0 cell loss
Type: toxicity, cell-based
Settings: human, 18 h, 10 µM, compound concentration 10 uM, replicate number 2
measured.quantity: Growth Rate

| compound | measured.target | measured.result |
| --- | --- | --- |
| Cl.Cl.Fc1ccc([C@@H]2CCNC[C@H]2COc2ccc3c(c2)OCO3)cc1.Fc1ccc([C@@H]2CCNC[C@H]2COc2ccc3c(c2)OCO3)cc1.O [PAROXETINE HYDROCHLORIDE] | U2OS | 0.89 |
| CS(=O)(=O)O.C[C@H](NC(=O)c1cnc2n1[C@](C)(Cc1ccc(C#N)cc1)C(=O)N2c1cc(Cl)c(F)c(Cl)c1)C(=O)NC1(c2ccccn2)CC1 | U2OS | 0.81 |

Here's the next entry for you.
Query: Tell me reported Growth Rate for `CN1CCCN(C(=O)c2cccc(-c3ccc(/C=C4/C(=O)Nc5ccc(Cl)cc54)o3)c2)CC1` , tested with U2OS.
Reply: -0.44
